experimental-target: T1, Homo sapiens factor Bb protein (human, UniProt P00751 260-764)
T1 construct: Bought from CompTech (A155); also called complement factor Bb; human factor Bb
T1 sequence (P00751 260-764 limits assumed): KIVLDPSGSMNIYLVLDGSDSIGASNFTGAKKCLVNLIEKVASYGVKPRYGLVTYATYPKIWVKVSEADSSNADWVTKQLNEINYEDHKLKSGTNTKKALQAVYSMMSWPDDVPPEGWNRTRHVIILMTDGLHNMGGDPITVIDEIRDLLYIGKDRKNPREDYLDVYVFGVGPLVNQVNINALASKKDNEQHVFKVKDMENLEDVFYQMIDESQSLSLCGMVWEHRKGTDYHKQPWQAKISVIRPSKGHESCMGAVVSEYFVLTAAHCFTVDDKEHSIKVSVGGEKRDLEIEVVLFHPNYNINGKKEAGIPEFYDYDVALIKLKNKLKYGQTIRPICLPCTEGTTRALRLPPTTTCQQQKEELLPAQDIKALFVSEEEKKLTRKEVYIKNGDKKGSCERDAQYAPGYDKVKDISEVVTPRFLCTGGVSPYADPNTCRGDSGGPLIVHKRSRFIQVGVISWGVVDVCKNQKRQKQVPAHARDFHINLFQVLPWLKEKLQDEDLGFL
test: SPR single cycle kinetics, IgG on Protein A chip, factor Bb analyte
Procedure: In order to assess the binding of all humanized variants, single cycle kinetic analysis was performed on supernatants from transfected cell cultures. […] All single cycle kinetic experiments were run at 25° C. with HBS-P+running buffer (pH 7. 4) (GE Healthcare, Little Chalfont, UK). Antibodies were diluted in running buffer to a final concentration of 1 μg/ml, based on concentrations assessed by ELISA titer. […]
Please use MET for kon under 400000 M⁻¹ s⁻¹ and NOT MET for everything else, ties included.

binder	class-assignment
VH7/Vκ0 (antibody, V domains shown, Control antibody of the redesign round; cloned into the appropriate expression vector (IgG4v1 and kappa were used in the first round), HEK EBNA supernatant) VH: EVQLVESGGGLVKPGGSLRLSCAASGFTFSNYAMSWVRQTPEKRLEWVATISNRGSYTYYPDSVKGRFTISRDNAKNSLYLQMNSLRAEDTALYYCARERPMDYWGQGTLVTVSS VL: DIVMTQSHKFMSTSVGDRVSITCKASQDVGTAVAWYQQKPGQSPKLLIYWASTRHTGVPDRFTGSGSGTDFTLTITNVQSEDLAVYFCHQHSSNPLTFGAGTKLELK	MET
VH5/Vκ7 (antibody, V domains shown, Redesigned variant; cloned into the appropriate expression vector (IgG4v1 and kappa were used in the first round), HEK EBNA supernatant) VH: EVQLVESGGGLVKPGGSLRLSCAASGFTFSNYAMSWVRQTPEKRLEWVATISNRGSYTYYPDSVKGRFTISRDNAKNSLYLQMSSLRSEDTALYYCARERPMDYWGQGTSVTVSS VL: DIQMTQSPSTLSASVGDRVTITCKASQDVGTAVAWYQQKPGKAPKLLIYWASTRHTGVPDRFSGSGSGTDFTLTISSLQAEDFAVYFCHQHSSNPLTFGQGTKLEIK	MET
VH0/Vκ6 (antibody, V domains shown, Control antibody of the redesign round; cloned into the appropriate expression vector (IgG4v1 and kappa were used in the first round), HEK EBNA supernatant) VH: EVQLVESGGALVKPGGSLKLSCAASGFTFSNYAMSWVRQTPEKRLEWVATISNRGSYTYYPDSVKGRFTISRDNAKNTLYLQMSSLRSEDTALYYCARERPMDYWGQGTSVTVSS VL: DIVMTQSPSFLSASVGDRVTITCKASQDVGTAVAWYQQKPGKAPKLLIYWASTRHTGVPDRFTGSGSGTDFTLTISSLQSEDFAVYFCHQHSSNPLTFGQGTKLEIK	NOT MET
VH4/Vκ7 (antibody, V domains shown, Redesigned variant; cloned into the appropriate expression vector (IgG4v1 and kappa were used in the first round)) VH: EVQLVESGGGLVKPGGSLRLSCAASGFTFSNYAMSWVRQAPGKRLEWVATISNRGSYTYYPDSVKGRFTISRDNAKNSLYLQMSSLRSEDTALYYCARERPMDYWGQGTSVTVSS VL: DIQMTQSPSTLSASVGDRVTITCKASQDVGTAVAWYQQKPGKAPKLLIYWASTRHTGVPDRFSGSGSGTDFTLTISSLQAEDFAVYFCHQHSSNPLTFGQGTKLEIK	MET
VH7/Vκ7 (antibody, V domains shown, Redesigned variant; cloned into the appropriate expression vector (IgG4v1 and kappa were used in the first round); also called VH7/VκK7) VH: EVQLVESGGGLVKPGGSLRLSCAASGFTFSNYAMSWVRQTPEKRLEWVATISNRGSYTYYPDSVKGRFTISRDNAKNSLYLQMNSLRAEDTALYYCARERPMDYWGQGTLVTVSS VL: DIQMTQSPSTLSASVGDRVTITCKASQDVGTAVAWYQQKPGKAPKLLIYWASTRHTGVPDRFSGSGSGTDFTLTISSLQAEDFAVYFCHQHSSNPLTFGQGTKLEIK	NOT MET
VH0/Vκ7 (antibody, V domains shown, Control antibody of the redesign round; cloned into the appropriate expression vector (IgG4v1 and kappa were used in the first round), HEK EBNA supernatant) VH: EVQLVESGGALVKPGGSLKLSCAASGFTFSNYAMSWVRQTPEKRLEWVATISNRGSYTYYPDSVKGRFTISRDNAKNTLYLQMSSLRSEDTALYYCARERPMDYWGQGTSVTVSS VL: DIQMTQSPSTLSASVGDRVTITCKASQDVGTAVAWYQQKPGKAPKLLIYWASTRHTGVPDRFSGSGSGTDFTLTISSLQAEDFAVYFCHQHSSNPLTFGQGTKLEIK	NOT MET
VH0/Vκ3 (antibody, V domains shown, constant regions not restated, the humanisation used IgG4v1 heavy chain and kappa light chain vectors) VH: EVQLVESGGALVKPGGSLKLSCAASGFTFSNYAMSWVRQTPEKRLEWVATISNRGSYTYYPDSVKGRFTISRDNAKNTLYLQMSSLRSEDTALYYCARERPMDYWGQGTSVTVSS VL: DIQMTQSPSTLSASVGDRVTITCKASQDVGTAVAWYQQKPGQPPKLLIYWASTRHTGVPDRFSGSGSGTDFTLTISSLQAEDFAVYFCHQHSSNPLTFGQGTKLEIK	NOT MET
VH6/Vκ0 (antibody, V domains shown, Control antibody of the redesign round; cloned into the appropriate expression vector (IgG4v1 and kappa were used in the first round), HEK EBNA supernatant) VH: EVQLVESGGGLVKPGGSLRLSCAASGFTFSNYAMSWVRQAPGKRLEWVATISNRGSYTYYPDSVKGRFTISRDNAKNSLYLQMNSLRAEDTALYYCARERPMDYWGQGTLVTVSS VL: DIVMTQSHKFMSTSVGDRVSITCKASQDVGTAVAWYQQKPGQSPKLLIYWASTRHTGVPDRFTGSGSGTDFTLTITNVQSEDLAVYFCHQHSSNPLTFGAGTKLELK	NOT MET
VH5/Vκ6 (antibody, V domains shown, Redesigned variant; cloned into the appropriate expression vector (IgG4v1 and kappa were used in the first round), HEK EBNA supernatant) VH: EVQLVESGGGLVKPGGSLRLSCAASGFTFSNYAMSWVRQTPEKRLEWVATISNRGSYTYYPDSVKGRFTISRDNAKNSLYLQMSSLRSEDTALYYCARERPMDYWGQGTSVTVSS VL: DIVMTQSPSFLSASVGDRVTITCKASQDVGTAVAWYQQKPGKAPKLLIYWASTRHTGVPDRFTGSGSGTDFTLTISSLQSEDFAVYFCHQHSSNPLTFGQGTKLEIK	MET
